Each entry below lists one item and its recorded koff value.
Biological target: T1, cTnI quality control product recombinant protein (human, UniProt P19429 2-210, limits assumed)
T1 construct: treated as the same molecule; also called cTnI antigen; cardiac troponin I
T1 sequence (P19429 2-210 limits assumed): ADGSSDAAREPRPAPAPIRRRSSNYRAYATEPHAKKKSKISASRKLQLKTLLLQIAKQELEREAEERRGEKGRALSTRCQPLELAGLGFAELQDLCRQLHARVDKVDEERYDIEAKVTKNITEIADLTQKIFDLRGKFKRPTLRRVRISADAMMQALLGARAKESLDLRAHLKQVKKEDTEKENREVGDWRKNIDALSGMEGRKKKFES
Assay: AMC sensor, antibody immobilised, cTnI in solution
Numbers only; they are read as s⁻¹.

Query (binder): Mutation 1-24 (antibody, V domains shown, Built as m8) VH: EVQLQQSGPELVKPGASVKMSCKASGYTFTIYVVHWVKQKPGQGLEWIGYIYPYLDGTKYNEKFKGKATLTVDKSSSTAFMELSSLTSEDSAVYYCARSGYGQYGLAWLAYWGQGTLVTVSA VL: QAVVIQESALTTSPGETVTLTCRSSTGAATTSQYANWVQEKPDHLFTGLIGGSNNRAPGVPARFSGSLIGDKAALTITGAQTEDEAIYFCALVYSNNWVFGGGTKLTVLG ; field requested: koff
3.62e-05

Query (binder): Mutation 1-51 (antibody, V domains shown, Built as m8) VH: EVQLQQSGPELVKPGASVKMSCKASGYTFTIYVVHWVKQKPGQGLEWIGYIQPYIDGTKYNEKFKGKATLTVDKSSSTAFMELSSLTSEDSAVYYCARSGYGQYGLAWLAYWGQGTLVTVSA VL: QAVVIQESALTTSPGETVTLTCRSSTGAATTSQYANWVQEKPDHLFTGLIGGSNNRAPGVPARFSGSLIGDKAALTITGAQTEDEAIYFCALVYSNHWVFGGGTKLTVLG ; field requested: koff
0.000223

Query (binder): Mutation 1-45 (antibody, V domains shown, Built as m8) VH: EVQLQQSGPELVKPGASVKMSCKASGYTFTLYVVHWVKQKPGQGLEWIGYIQPYLDGTKYNEKFKGKATLTVDKSSSTAFMELSSLTSEDSAVYYCARSGYGQYGLAWLAYWGQGTLVTVSA VL: QAVVIQESALTTSPGETVTLTCRSSTGAVTTSQYANWVQEKPDHLFTGLIGGSQNRAPGVPARFSGSLIGDKAALTITGAQTEDEAIYFCALVYSNQWVFGGGTKLTVLG ; field requested: koff
0.000286

Query (binder): Mutation 1-50 (antibody, V domains shown) VH: EVQLQQSGPELVKPGASVKMSCKASGYTFTIYVIHWVKQKPGQGLEWIGYIYPYIDGTKYNEKFKGKATLTVDKSSSTAFMELSSLTSEDSAVYYCARSGYGGYGLAWLAYWGQGTLVTVSA VL: QAVVIQESALTTSPGETVTLTCRSSTGAATTSQYANWVQEKPDHLFTGLIGGSQNRAPGVPARFSGSLIGDKAALTITGAQTEDEAIYFCALVYSNHWVFGGGTKLTVLG ; field requested: koff
0.000233

Next:
Query (binder): Mutation 1-35 (antibody, V domains shown, Built as m8) VH: EVQLQQSGPELVKPGASVKMSCKASGYTFTLYVIHWVKQKPGQGLEWIGYIQPYLDGTKYNEKFKGKATLTVDKSSSTAFMELSSLTSEDSAVYYCARSGYGGYGLAWLAYWGQGTLVTVSA VL: QAVVIQESALTTSPGETVTLTCRSSTGAATTSNYANWVQEKPDHLFTGLIGGSQNRAPGVPARFSGSLIGDKAALTITGAQTEDEAIYFCALVYSNQWVFGGGTKLTVLG ; field requested: koff
4.31e-05
